- Test system: Es-2
- Assay info: Primary qHTS to identify gynecologic anti-cancer compounds using libraries of approved drugs and bioactive compounds (AID 1345084); also: % is scaled to controls: 0 for no effect and ±100 for the full control effect; nearly all actives have a fitted effect of over 55% in size
- Condition: Gynecologic cancer cell panel viability, ATPlite luminescence, 48 h; series mostly up to 57.5 µM
Inconclusive results are not listed. Calls of active or inactive are those of the source. Calls follow the shape of the dose curve; as a rule, active = well fitted cell-killing curve with a large enough effect; inconclusive = small, poorly fitted or top-dose-only effect, or effect the other way; inactive = flat fitted curve, though single readings scatter.
Observable: activity change, negative = cytotoxicity

Previously resolved entries follow.
C=C[C@H]1[C@H](O[C@@H]2O[C@H](CO)[C@@H](O)[C@H](O)[C@H]2O)OC=C2C(=O)OCC[C@H]21: inactive
CCCCCOc1cc2c(cc1-c1cc(/C=C/C(=O)O)ccc1O)C(C)(C)CCC2(C)C: inactive
CC(N)Cc1c[nH]c2ccccc12 (stereo not given): inactive
CC[C@H]1CN2CC[C@H]1C[C@H]2[C@H](O)c1ccnc2ccc(OC)cc12: inactive

In the following, a different compound is considered.
Notebook: pull reported activity change, negative = cytotoxicity for Es-2, entry CN1CCCC1CCOC(c1cc2nccc(C(=O)O)c2[nH]1)c1ccccc1Cl (stereo not given)
inactive

----------
- Assay info: qHTS Assay for Identifying Gametocytocidal Compounds (AID 743244);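 also: % is scaled to controls: 0 for no effect and ±100 for the full control effect; actives lower the fluorescent signal which means gametocytes are killed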
- Condition: P. falciparum 3D7 stage III-V gametocytes, alamarBlue, 72 h; hits give low values
- Excerpt: Malaria cases and deaths have dropped 50% in 29 countries since 2000 due to the combined effects of long-lasting insecticidal bednets, indoor residual spraying, and artemisinin-based combination therapies (ACTs). […] Within live cells, the nonfluorescent resazurin is reduced to resorufin, a bright red fluorescence dye. Fluorescence decreases upon treatment of gametocytocidal compounds. […]
Results filed as inconclusive are left out.
Observable: max response (%)
Unit % implied. Number only.

Consider the compound CCNC(C)Cc1cccc(C(F)(F)F)c1 (stereo not drawn) and give its measured max response.
22.8

What value of measured max response is listed for O=C1CN=C(c2ccccc2)c2cc(Cl)ccc2N1CC1CC1 ?
-0.952

Would you mind telling me what max response value was observed for Cc1cccc(C(C)c2cnc[nH]2)c1C (stereo not drawn) ?
17.3

Fill blank: measured max response of the compound Clc1ccc(C2(Cn3cncn3)OCCO2)c(Cl)c1 is ____.
-2.25

For the compound shown here, NCCc1ccc(S(=O)(=O)F)cc1 , give the reported max response.
22.8

Looking for the measured max response of COc1ccc2c(c1O)-c1cccc3c1[C@@H](C2)N(C)CC3 , can you help?
27.6

// returns reported max response for input ClC1C(Cl)C(Cl)C(Cl)C(Cl)C1Cl (stereo not drawn)
4.65

Would you mind telling me what max response value was observed for COc1ccc2[nH]cc(CCN)c2c1 ?
15.8

Name the recorded max response for O=S(=O)(O)c1cc(O)ccc1O .
6.77

Bench note: what max response did CCOC(=O)/C=C(C)/C=C/C[C@@H](C)CCCC(C)C show?
10.1

max response lookup needed for Clc1ccc(Cl)cc1 , thanks.
-1.73

// max response lookup, key: NNC(N)=O
14.6

For the compound CCN(CC)CCO[C@H]1CC[C@@]2(C)C(=CC[C@@H]3[C@@H]2CC[C@]2(C)C(=O)CC[C@@H]32)C1 , what max response is on record?
-4.56

----------
- Assay info: High Content Imaging Cell-Based qHTS for Inhibitors of the mTORC1 Signaling Pathway in MEF (Tsc2-/-, p53-/-) Cells (AID 2666);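 also: percent of cells scored positive for phospho-rpS6 Ser235/236 immunostaining by imaging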
- Condition: series mostly up to 38.3 µM
Inconclusive results are not listed. Active and inactive are the calls of the source. Calls follow the shape of the dose curve; as a rule, active = well fitted inhibition curve with a large enough effect; inconclusive = small, poorly fitted or top-dose-only effect; inactive = flat fitted curve, though single readings scatter.
The reply should be one of these categories: active, inactive

# outcome recorded in this test, key = c1ccc2cc(CC3=NCCN3)ccc2c1
inactive

Test call for this compound, please: c1ccc2c(N3CCNCC3)cccc2c1
inactive

How was NCC(O)c1cc(O)c(O)cc1F (configuration not stated) classified in this test?
inactive

Please state the recorded outcome for this compound: COc1ccc2c(c1O)-c1cccc3c1[C@@H](C2)N(C)CC3
inactive

What was the test verdict on NCCc1ccc(S(=O)(=O)F)cc1 ?
inactive

For this compound, state the assay outcome: COc1ccc(CNC(=O)/C=C/c2ccc3[nH]cc(CCN(C)C)c3c2)cc1
inactive

What was the test verdict on N#CCCN ?
inactive

Query: recorded result category for C[N+]1(C)CCc2cc3c(cc2[C@H]1[C@@H]1OC(=O)c2c1ccc1c2OCO1)OCO3 in this test
inactive

State the result this test recorded for COc1ccc2[nH]c3c(c2c1)CCNC3 .
inactive

In this assay, the call recorded for NC(=O)COc1c(F)cc(SCCNS(=O)(=O)c2ccccc2)cc1F was what?
inactive

Hi, do you know how Oc1ccc2c3c1O[C@H]1c4oc5ccccc5c4C[C@@]4(O)C(C2)N(CC2CC2)CCC314 (some centres not stated) came out in this test?
inactive

Would you mind telling me which call this test gave CCn1cnc2c(Nc3cccc(Cl)c3)nc(N[C@@H]3CCCC[C@@H]3N)nc21 ?
active

----------
- System tested: Bile acid receptor (Homo sapiens) (UniProt Q96RI1)
- Sequence (Q96RI1 whole entry, looked up): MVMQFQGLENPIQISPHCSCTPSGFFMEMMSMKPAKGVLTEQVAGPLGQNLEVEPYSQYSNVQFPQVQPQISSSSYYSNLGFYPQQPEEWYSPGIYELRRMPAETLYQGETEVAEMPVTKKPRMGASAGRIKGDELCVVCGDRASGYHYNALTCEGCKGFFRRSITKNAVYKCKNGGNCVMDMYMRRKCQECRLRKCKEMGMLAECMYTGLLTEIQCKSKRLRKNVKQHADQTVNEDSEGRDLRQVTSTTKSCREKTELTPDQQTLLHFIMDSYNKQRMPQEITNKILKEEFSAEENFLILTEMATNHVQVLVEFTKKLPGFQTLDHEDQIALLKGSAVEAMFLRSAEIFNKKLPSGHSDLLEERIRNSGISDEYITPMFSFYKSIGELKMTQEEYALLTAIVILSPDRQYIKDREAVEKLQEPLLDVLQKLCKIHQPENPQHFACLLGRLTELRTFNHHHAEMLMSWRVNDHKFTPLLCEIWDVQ
- Assay info: qHTS assay for small molecule antagonists of farnesoid X receptor signaling (AID 588526); also: % is scaled to controls: 0 for no effect and ±100 for the full control effect
- Condition: HEK293T FXR-UAS-bla, beta-lactamase ratio, antagonist mode; series mostly up to 76.7 µM
Inconclusive results are not listed. Activity calls are given as the source filed them. Calls follow the shape of the full dose curve.
Observable: outcome

ClC(Cl)(Cl)Cl: inactive
CCCCCl: inactive
COC1=CC(=O)O[C@@H](/C=C/c2ccccc2)C1: inactive

----------
Record form. Attribute: activity change, negative = inhibition. Fill in for each entry.
- Assay info: qHTS Assay for Lipid Storage Modulators (AID 1519); also: % is scaled to controls: 0 for no effect and ±100 for the full control effect
- Condition: Drosophila S3 cells, BODIPY lipid droplet/cell ratio, laser cytometry; at 57.5 µM (top of the series); cells loaded with oleic acid
Results filed as inconclusive are left out.
Please state the figure in %; there is no need to write the unit.

Which activity change, negative = inhibition value belongs to c1ccc2c(N3CCNCC3)cccc2c1 ?
-1.92

Returns the measured activity change, negative = inhibition for the input compound. Input: COc1ccc2[nH]c3c(c2c1)CCNC3
-0.655

Returns the measured activity change, negative = inhibition for the input compound. Input: NNC(=O)c1ccc(O)cc1
0.0246

Reported activity change, negative = inhibition for C[N+](C)(C)CC#CCOC(=O)Nc1cccc(Cl)c1 : what is it?
-0.494

Look up activity change, negative = inhibition for this compound: CCS(=O)(=O)Nc1cccc(C(=C2CCCCC2)c2cnc[nH]2)c1
1.44

For the compound Cc1[nH]c2ccc(O)cc2c1CCN , what activity change, negative = inhibition is on record?
-0.216

If you can, please state the reported activity change, negative = inhibition value of CC12NC(Cc3ccccc31)c1ccccc12 (configuration not stated) .
-2.09

Tell me the measured activity change, negative = inhibition of NC(Cc1ccc(N(CCCl)CCCl)cc1)C(=O)O (configuration not stated) , please.
5.85

Given NNC(N)=O , state its recorded activity change, negative = inhibition.
1.16

Entry CC1OC1P(=O)(O)O (configuration not stated) has what activity change, negative = inhibition?
3.73

// query activity change, negative = inhibition value for entry NC(=O)COc1c(F)cc(SCCNS(=O)(=O)c2ccccc2)cc1F
-2.33

Any idea what activity change, negative = inhibition was measured for Clc1ccc(Cl)cc1 ?
0.214

Entry CN(C(=O)Cc1ccc(Cl)c(Cl)c1)C(CN1CCCC1)c1cccc(OCC(=O)O)c1 (configuration not stated) : reported activity change, negative = inhibition = ?
2.91

What value of measured activity change, negative = inhibition is listed for COc1ccc(CNC(=O)/C=C/c2ccc3[nH]cc(CCN(C)C)c3c2)cc1 ?
-4.95

Param item = CCCN(CCC)C1CCc2cccc(O)c2C1 (configuration not stated) ; retrieve measured activity change, negative = inhibition.
-0.917

// returns reported activity change, negative = inhibition for input CN1CCc2cccc(Cl)c2CC1
0.882

Please report the recorded activity change, negative = inhibition for CC(N)Cc1c[nH]c2ccc(OCc3cccs3)cc12 (configuration not stated) .
-0.884

Requested read-out: activity change, negative = inhibition. Entry: CN(N=O)c1ccc(O)c(O)c1
-1.9

Item under review: COC(=O)N1CCN(C(=O)Cc2ccc(Cl)c(Cl)c2)C(CN2CCCC2)C1 (configuration not stated) . Reported activity change, negative = inhibition?
0.712

Return reported activity change, negative = inhibition; argument: CCN(CCCl)Cc1ccccc1Br
-2.24

For the compound shown here, CCCn1c(C)c(C(=O)c2ccc3ccccc3c2)c2ccccc21 , give the reported activity change, negative = inhibition.
-0.784

Please give the measured activity change, negative = inhibition for this compound: NC(N)=Nc1ccc2[nH]c3c(c2c1)C[C@@]1(O)[C@H]2Cc4ccc(O)c5c4[C@@]1(CCN2CC1CC1)[C@H]3O5
-5.63

// query activity change, negative = inhibition value for entry CC(N)[C@H](O)c1ccc(O)c(O)c1 (some centres not stated)
0.659

Item under review: CCCN(CCC)CCc1c[nH]c2ccc(C(N)=O)cc12 . Reported activity change, negative = inhibition?
1.01

Given the compound NC(=O)c1ccc(OCC(O)CN2CC=C(c3ccc(F)cc3)CC2)cc1 (configuration not stated) , what is its reported activity change, negative = inhibition?
-3.69

Dear colleague, I am looking for the recorded activity change, negative = inhibition of the following compound: Clc1cc(I)cc(Cl)c1NC1=NCCN1
0.0728

Fill in the blank: the reported activity change, negative = inhibition of O=C1CCO1 is ____.
5.6
